From: patent US20100022491A1

system: Adrenergic β2 (Homo sapiens)
Construct: Adherent H292 cells were removed from tissue culture flasks; endogenous in cells; host or cells: H292 cells
Sequence (P07550 whole entry): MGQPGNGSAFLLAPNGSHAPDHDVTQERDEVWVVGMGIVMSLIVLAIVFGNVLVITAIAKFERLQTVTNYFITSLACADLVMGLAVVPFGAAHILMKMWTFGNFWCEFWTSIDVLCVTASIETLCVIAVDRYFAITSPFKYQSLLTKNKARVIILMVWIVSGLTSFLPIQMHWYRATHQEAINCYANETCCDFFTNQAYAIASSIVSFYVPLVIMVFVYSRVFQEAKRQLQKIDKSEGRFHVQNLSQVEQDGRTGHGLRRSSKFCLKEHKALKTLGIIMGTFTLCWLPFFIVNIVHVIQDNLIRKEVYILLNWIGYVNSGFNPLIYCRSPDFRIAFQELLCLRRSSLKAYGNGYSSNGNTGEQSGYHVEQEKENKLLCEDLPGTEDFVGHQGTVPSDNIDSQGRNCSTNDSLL
experiment_summary: Adrenergic β2 mediated cAMP production in H292 cells
Type: cell-based
test_parameters: Intrinsic Activity as a fraction relative to the maximum activity determined for formoterol
Counter-ions that a name gives are not always drawn.
metric_name: β2 Int Act

// worked examples, β2 Int Act included
{"columns": ["molecule", "system", "β2 Int Act"],
 "data": [
  ["CC(C)(CNCCC(=O)N(CCNCCc1ccc(O)c2[nH]c(=O)sc12)C1CCCCC1)c1ccccc1 [Example 21, bis-trifluoroacetic acid salt]", "Adrenergic β2 (Homo sapiens)", 0.85],
  ["COc1cccc(CCNCCC(=O)N(CCNCCc2ccc(O)c3[nH]c(=O)sc23)C2CCCCC2)c1 [Example 70, bis-trifluoroacetic acid salt]", "Adrenergic β2 (Homo sapiens)", 0.84],
  ["O=C(CCNCCc1ccc(F)c(F)c1)N(CCNCCc1ccc(O)c2[nH]c(=O)sc12)C1CCCCC1 [Example 73, bis-trifluoroacetic acid salt]", "Adrenergic β2 (Homo sapiens)", 0.85],
  ["Cc1cccc(CCNCCC(=O)N(CCNCCc2ccc(O)c3[nH]c(=O)sc23)C2CCCCC2)c1 [Example 14, bis-trifluoroacetic acid salt]", "Adrenergic β2 (Homo sapiens)", 0.84],
  ["O=C(CCNCCc1ccc(Cl)cc1)N(CCNCCc1ccc(O)c2[nH]c(=O)sc12)C1CCCC1 [Example 28, bis-trifluoroacetic acid salt]", "Adrenergic β2 (Homo sapiens)", 0.87],
  ["CC(C)(C)CN(CCNCCc1ccc(O)c2[nH]c(=O)sc12)C(=O)CCNCCc1ccc(Cl)cc1 [Example 8, bis-trifluoroacetic acid salt]", "Adrenergic β2 (Homo sapiens)", 0.73]
]}

P: CC(C)(CNCCC(=O)N(CCNCCc1ccc(O)c2[nH]c(=O)sc12)C1CCCC1)c1ccccc1 [Example 32, bis-trifluoroacetic acid salt]
Q: COc1ccc(CCNCCC(=O)N(CCNCCc2ccc(O)c3[nH]c(=O)sc23)C2CCCCCC2)cc1OC [Example 86, bis-trifluoroacetic acid salt]
Lower value for measured β2 Int Act? Options: P , Q Give the label under which the chosen entry appears. Q
(Q: 0.43, P: 0.67)

P: Cc1ccccc1CCNCCC(=O)N(CCNCCc1ccc(O)c2[nH]c(=O)sc12)C1CCOCC1 [Example 27, bis-trifluoroacetic acid salt]
Q: CC(C)N(CCNCCc1ccc(O)c2[nH]c(=O)sc12)C(=O)CCNCCc1ccc(Cl)cc1 [Example 3, bis-trifluoroacetic acid salt]
Lower value for measured β2 Int Act? Options: P , Q Give the label under which the chosen entry appears. Q
(Q: 0.34, P: 0.95)
